Biological target: hCAII isoenzyme purified from human erythrocytes (Homo sapiens)
Construct: […]; from tissue; host or cells: human erythrocytes
Assay: Inhibition of esterase activity (p-nitrophenyl acetate) of purified hCAII
Format: biochemical
Conditions: esterase activity method, saturated substrate concentration
Item-by-item account of IC50

{"compound": "CCN(Cc1cccc(S(=O)(=O)[O-])c1)c1ccc(C(=C2C=CC(=[N+](CC)Cc3cccc(S(=O)(=O)[O-])c3)C=C2)c2ccccc2S(=O)(=O)[O-])cc1.[Na+].[Na+]", "IC50": "364 µM"}
{"compound": "O=C([O-])C1=NN(c2ccc(S(=O)(=O)[O-])cc2)C(=O)C1N=Nc1ccc(S(=O)(=O)[O-])cc1.[Na+].[Na+].[Na+] (stereo not drawn)", "IC50": "622 µM"}
{"compound": "CCN(CC)c1ccc(C(=C2C=CC(=[N+](CC)CC)C=C2)c2cc(O)c(S(=O)(=O)[O-])cc2S(=O)(=O)[O-])cc1.CCN(CC)c1ccc(C(=C2C=CC(=[N+](CC)CC)C=C2)c2cc(O)c(S(=O)(=O)[O-])cc2S(=O)(=O)[O-])cc1.[Ca+2]", "IC50": "397 µM"}

* * *

As an illustration, consider measured IC50 for compounds on hCAII isoenzyme purified from human erythrocytes (Homo sapiens, UniProt P00918).
Where a SMILES comes first, the peptide text is derived from it.

{"compound": "O=C1/C(=C2\\Nc3ccc(S(=O)(=O)[O-])cc3C2=O)Nc2ccc(S(=O)(=O)[O-])cc21.[Na+].[Na+]", "IC50, µM": 242}
{"compound": "COC(=O)[C@H](Cc1ccccc1)NC(=O)[C@@H](N)CC(=O)O [Aspartame] (HELM PEPTIDE1{D.F.[CO[*:1]]}$$$$V2.0)", "IC50, µM": 2940}
{"compound": "O=C(O)CC(O)(CC(=O)O)C(=O)O", "IC50, µM": 1240}
{"compound": "O=C(O)c1ccccc1", "IC50, µM": 2990}

* * *

Items are presented alongside their recorded pIC50.
Target: hCAI isoenzyme purified from human erythrocytes (Homo sapiens, UniProt P00915)
Construct: hCAI isoenzyme purified from human erythrocytes; from tissue; host or cells: human erythrocytes
Sequence (P00915 whole entry): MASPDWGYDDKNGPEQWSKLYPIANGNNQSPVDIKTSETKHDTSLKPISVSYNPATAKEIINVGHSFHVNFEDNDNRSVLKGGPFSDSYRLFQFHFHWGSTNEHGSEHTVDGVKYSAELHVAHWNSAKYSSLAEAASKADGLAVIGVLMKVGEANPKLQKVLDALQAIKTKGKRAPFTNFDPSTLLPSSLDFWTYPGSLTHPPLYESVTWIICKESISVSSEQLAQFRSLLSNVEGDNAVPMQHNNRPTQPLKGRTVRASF
Assay: Inhibition of esterase activity (p-nitrophenyl acetate) of purified hCAI; IC50, Ki, inhibition type
Assay type: biochemical
Settings: esterase activity method, saturated substrate concentration; read-out: IC50 hCAI
pIC50: −log10 of the molar value.
measured_attribute: pIC50

{"smiles_data": "CCN(Cc1cccc(S(=O)(=O)[O-])c1)c1ccc(C(=C2C=CC(=[N+](CC)Cc3cccc(S(=O)(=O)[O-])c3)C=C2)c2ccccc2S(=O)(=O)[O-])cc1.[Na+].[Na+]", "experimental_value": 3.68}
{"smiles_data": "O=C([O-])c1ccccc1-c1c2cc(I)c(=O)c(I)c-2oc2c(I)c([O-])c(I)cc12.[Na+].[Na+]", "experimental_value": 4.71}
{"smiles_data": "O=S(=O)([O-])c1ccc2c(N=Nc3ccc(S(=O)(=O)[O-])c4ccccc34)c(O)c(S(=O)(=O)[O-])cc2c1.[Na+].[Na+].[Na+]", "experimental_value": 3.30}
